runDescription: p53 small molecule agonists, cell-based qHTS assay with rat liver microsomes (AID 1963578)
measurementConditions: HCT-116 p53RE-bla, beta-lactamase ratio, 16 h; series mostly up to 66 µM
From the text: U.S. Tox21 Program National Center for Advancing Translational Sciences [NCATS] Division of Preclinical Innovation [DPI] U.S. Environmental Protection Agency [EPA] National Institutes of Environmental Health Sciences [NIEHS] National Toxicology Program [NTP] U.S. Food and Drug Administration [FDA] […] The activation of the reporter gene under culture conditions can be detected by fluorescence intensity. […]
Records with an inconclusive call do not appear. The source made the active and inactive calls. Calls come from the whole dose curve.
measuredEndpoint: activation

Worked examples, 8 compounds total:
>>> val("Cc1ccccc1N=Nc1ccc(N=Nc2c(O)ccc3ccccc23)c(C)c1")
"inactive"
>>> val("CO")
"inactive"
>>> val("O=C1Nc2ccc([N+](=O)[O-])cc2C1=O")
"inactive"
>>> val("CC1(C)CCC[C@]2(C)[C@H]3CC(=O)O[C@]3(C)CC[C@@H]12")
"inactive"
>>> val("O=C1c2ccccc2C(=O)N1SC1CCCCC1")
"inactive"
>>> val("Cc1ccc([N+](=O)[O-])c(N)c1")
"inactive"
>>> val("O=[N+]([O-])c1ccc2ncccc2c1")
"inactive"
>>> val("C[C@]12CCC(=O)C=C1C=C[C@@H]1[C@@H]2CC[C@@]2(C)[C@H]1CC[C@@]21CCC(=O)O1")
"inactive"

Task: # input compound: CCC(C)(C)C1CCC(O)CC1 (stereo not drawn) ; wanted: its activation
Output: inactive
